Entries with reported IC50 on UniProt:H0VZC5
Sequence (H0VZC5 entry or part of it): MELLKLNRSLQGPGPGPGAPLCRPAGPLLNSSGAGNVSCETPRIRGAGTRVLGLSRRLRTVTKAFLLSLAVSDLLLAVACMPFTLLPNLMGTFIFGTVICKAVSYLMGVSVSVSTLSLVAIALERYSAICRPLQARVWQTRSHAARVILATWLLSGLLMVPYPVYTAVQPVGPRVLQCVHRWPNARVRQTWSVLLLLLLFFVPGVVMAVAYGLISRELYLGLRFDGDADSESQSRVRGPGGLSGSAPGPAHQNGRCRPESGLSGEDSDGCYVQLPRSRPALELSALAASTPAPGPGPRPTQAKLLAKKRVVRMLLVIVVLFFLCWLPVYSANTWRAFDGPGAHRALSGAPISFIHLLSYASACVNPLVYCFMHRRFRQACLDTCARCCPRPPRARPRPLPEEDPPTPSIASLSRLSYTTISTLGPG
Answers are plain numbers, in nM.

Here are 3 compounds together with their reported answers.
>>> readout_value("CCN(CC)CCCNC1=Nc2ccccc2C(c2ccccc2)=NC1NC(=O)Nc1cccc(C)c1 (stereo not shown)")
120
>>> readout_value("Cc1cccc(NC(=O)NC2N=C(c3ccccc3)c3ccccc3N=C2NCCCN2CCCC2=O)c1 (stereo not shown)")
13
>>> readout_value("Cc1cccc(NC(=O)NC2N=C(c3ccccc3)c3ccccc3N=C2NCC(=O)N2CCN(C)CC2)c1 (stereo not shown)")
180

Now look at this entry.
Exam item: Provide measured IC50 value, entry: Cc1cccc(NC(=O)NC2N=C(c3ccccc3)c3ccccc3N=C2NCC(=O)N2CCCC2)c1 (stereo not shown)
Marked response: 20
